B1: Osa-1-4 twister ribozyme (parent)
chain: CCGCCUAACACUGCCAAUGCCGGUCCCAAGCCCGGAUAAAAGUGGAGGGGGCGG

# Variants of: B1
# PROCEDURE SUMMARY: self-cleavage, relative activity (ratio to wild type); higher = more cleavage; co-transcriptional
ENDPOINT: self-cleavage
Quick one: just the number, no unit, thanks!

Take a look at these entries with their results.
mut="C25A G51A" endpoint=self-cleavage value=0.1
mut="G48A U37G" endpoint=self-cleavage value=0.16
mut="A36C A38C" endpoint=self-cleavage value=0.81
mut="G45C U24A" endpoint=self-cleavage value=0.04
mut="A10G G35U" endpoint=self-cleavage value=0.4

Recall and state the measured self-cleavage for A7G C20U .
0.43

Retrieve self-cleavage measured for C31U C33G and print it.
0.06

Return self-cleavage for the following variant: G22U G30A
0.03

Quickly give me recorded self-cleavage for A28C C9A
0.42
